Readings of GPDH for the listed compounds
Molecular target: glycerol-3-phosphate dehydrogenase (GPDH) (Rattus norvegicus)
Construct: The activity of GPDH in intact mitochondria (0.3 mg/mL) was measured; from tissue; host or cells: rat skeletal muscle mitochondria (Wistar, Harlan Laboratories)
Sequence (P35571 43-727): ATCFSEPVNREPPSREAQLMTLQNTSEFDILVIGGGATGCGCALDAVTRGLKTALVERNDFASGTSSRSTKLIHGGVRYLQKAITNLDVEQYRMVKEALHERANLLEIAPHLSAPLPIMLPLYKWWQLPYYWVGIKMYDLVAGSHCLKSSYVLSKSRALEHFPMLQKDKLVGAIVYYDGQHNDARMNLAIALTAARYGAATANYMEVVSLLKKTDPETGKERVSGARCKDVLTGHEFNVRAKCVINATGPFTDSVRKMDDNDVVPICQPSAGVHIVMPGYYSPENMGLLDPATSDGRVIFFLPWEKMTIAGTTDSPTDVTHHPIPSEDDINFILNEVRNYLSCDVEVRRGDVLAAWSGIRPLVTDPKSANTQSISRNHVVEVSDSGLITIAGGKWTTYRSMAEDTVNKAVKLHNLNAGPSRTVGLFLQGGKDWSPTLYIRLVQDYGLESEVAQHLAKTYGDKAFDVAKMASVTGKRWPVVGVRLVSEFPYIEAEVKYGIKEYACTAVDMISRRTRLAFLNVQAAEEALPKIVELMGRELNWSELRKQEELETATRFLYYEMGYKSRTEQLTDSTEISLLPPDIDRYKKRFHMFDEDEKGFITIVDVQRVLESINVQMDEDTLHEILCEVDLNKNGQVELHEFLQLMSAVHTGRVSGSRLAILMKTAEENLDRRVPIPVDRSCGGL
Assay: High-throughput screen: ROS production from glycerol-3-phosphate dehydrogenase (GPDH)
Assay type: biochemical
Conditions: Table 9; percent change in ROS from DMSO controls
Reply: number alone, nothing else.

compound=Fc1ccc(N2CCN(CC(c3ccccc3)c3ccccc3)CC2)cc1 assayed_target="glycerol-3-phosphate dehydrogenase (GPDH) (Rattus norvegicus)" measurement=−4.7
compound=O=[N+]([O-])c1ccc(Oc2ccc(S(=O)(=O)Nc3ccc4c(c3)OCCO4)cc2)cc1 assayed_target="glycerol-3-phosphate dehydrogenase (GPDH) (Rattus norvegicus)" measurement=−3.3
compound="CCSC1=C(C#N)C2(CCCC2)C(C#N)C(=O)N1 (centres unmarked)" assayed_target="glycerol-3-phosphate dehydrogenase (GPDH) (Rattus norvegicus)" measurement=−0.1

Inquiry: For the compound CC1=CC(C)C(C2OCC(CN3CCCCC3)O2)C(C)C1 (centres unmarked) , report GPDH.
Reply text: −1.2

Inquiry: For the compound `CC1=CC(C)(C)N(Cc2ccc([N+](=O)[O-])cc2)c2ccccc21` , report GPDH.
Reply text: −0.6

====

Readings of inhibition at 2.5 µM for the listed molecules
Target: outer ubiquinone binding site of complex III (IIIQO) (Rattus norvegicus, UniProt P00159+P20788)
Construct: freshly isolated muscle mitochondria were assayed; from tissue; host or cells: rat skeletal muscle mitochondria (Wistar, Harlan Laboratories)
Assay: High-throughput screen: ROS production from outer ubiquinone binding site of complex III (IIIQO)
Assay type: biochemical
Settings: Table 7; percent change in ROS from DMSO controls; read-out: IIIQO
Please respond with the number in % and leave the unit unwritten.

Example results:
molecule="CC1=CC(C)(C)N(Cc2ccc([N+](=O)[O-])cc2)c2ccccc21 [Compound 37]" assay_endpoint="inhibition at 2.5 µM" measurement=32.1
molecule="COc1ccccc1/C=C/c1nc(O)nc(O)c1[N+](=O)[O-] [Compound 16]" assay_endpoint="inhibition at 2.5 µM" measurement=-6.6
molecule="COc1ccc(C2C(C#N)=C(N)Oc3c2c(=O)oc2ccccc32)cc1O (centres unmarked) [Compound 74]" assay_endpoint="inhibition at 2.5 µM" measurement=7.6
molecule="c1ccc2[nH]c(-c3ccc(-c4nc5ccccc5[nH]4)cc3)nc2c1 [Compound 55]" assay_endpoint="inhibition at 2.5 µM" measurement=-3.3
molecule="Cc1ccc(CCSc2ccc(F)cc2)cn1 [Compound 35]" assay_endpoint="inhibition at 2.5 µM" measurement=34.9
molecule="O=C(COc1ccc(Cl)cc1Cl)Nc1ccc(F)cc1F [Compound 24]" assay_endpoint="inhibition at 2.5 µM" measurement=1.3
molecule="CN(C)CCCN(CCCN(C)C)Cc1cccnc1 [Compound 33]" assay_endpoint="inhibition at 2.5 µM" measurement=-6.1
molecule="CC1CC(C)(C)N(C=O)c2ccccc21 (centres unmarked) [Compound 71]" assay_endpoint="inhibition at 2.5 µM" measurement=-6.3

Inquiry: For the molecule Cc1ccc(C(C)C)c(OCC(O)CN2CCN(Cc3ccccc3)CC2)c1.Cl.Cl (centres unmarked) [Compound 21] , report inhibition at 2.5 µM.
Reply text: 9.9

Inquiry: For the molecule O=C(Nc1ccc(-c2nc3ccccc3[nH]2)cc1)c1ccco1 [Compound 63] , report inhibition at 2.5 µM.
Reply text: -1.8

====

System: ubiquinone binding site of complex I (IQ)
Test: High-throughput screen: ROS production from ubiquinone binding site of complex I (IQ), isolated skeletal muscle mitochondria
Format: biochemical, rat
Settings: Table 8; percent change in ROS from DMSO controls
Readings of IQ for the listed molecules
Reply: number alone, nothing else.

Example results:
molecule="CN(C)CCCN(CCCN(C)C)Cc1cccnc1 [Compound 33]" measurement=−0.5
molecule="CC(C)(C)NS(=O)(=O)c1ccc2c(c1)C(=O)c1ccccc1C2=O [Compound 1]" measurement=−60.6

Inquiry: For the molecule O=C(Nc1ccccc1F)[C@@H]1C2C=CC(C2)[C@@H]1C(=O)O (stereo partly drawn) [Compound 20] , report IQ.
Reply text: 0.2

Inquiry: For the molecule C=C(C)CN(CC)Cc1cc([N+](=O)[O-])ccc1Cl [Compound 45] , report IQ.
Reply text: −0.2

Inquiry: For the molecule CCN1CCN(C2CCC(C(C)(C)C)CC2)CC1 (stereo not drawn) [Compound 22] , report IQ.
Reply text: −0.4

Inquiry: For the molecule COc1ccc(Cl)cc1N(Cc1ccccc1)Cc1ccccc1 [Compound 34] , report IQ.
Reply text: 4.0

Inquiry: For the molecule O=C(O)CCC(=O)Nc1ccc(-c2nc3ccccc3o2)cc1 [Compound 50] , report IQ.
Reply text: 0.8

Inquiry: For the molecule Clc1ccc(N2CCN(CC(c3ccccc3)c3ccccc3)CC2)cc1 [Compound 83] , report IQ.
Reply text: 2

Inquiry: For the molecule Cc1ccc(C)c(CN(CCCN(C)C)CCCN(C)C)c1 [Compound 32] , report IQ.
Reply text: −0.6

Inquiry: For the molecule O=[N+]([O-])c1ccc(Oc2ccc(S(=O)(=O)Nc3ccc(F)cc3)cc2)cc1 [Compound 84] , report IQ.
Reply text: −47.7

Inquiry: For the molecule COc1ccc(C2C(C#N)=C(N)Oc3c2c(=O)oc2ccccc32)cc1O (stereo not drawn) [Compound 74] , report IQ.
Reply text: −0.7

Inquiry: For the molecule COc1cccc(/C=C/C(=O)c2c(O)cc(C)oc2=O)c1O [Compound 17] , report IQ.
Reply text: −7.4

====

Target: flavin binding site of complex I (IF) (Rattus norvegicus, UniProt Q5XIH3)
Construct: freshly isolated muscle mitochondria were assayed; from tissue; host or cells: rat skeletal muscle mitochondria (Wistar, Harlan Laboratories)
Sequence (Q5XIH3 21-464 limits assumed, one chain of several): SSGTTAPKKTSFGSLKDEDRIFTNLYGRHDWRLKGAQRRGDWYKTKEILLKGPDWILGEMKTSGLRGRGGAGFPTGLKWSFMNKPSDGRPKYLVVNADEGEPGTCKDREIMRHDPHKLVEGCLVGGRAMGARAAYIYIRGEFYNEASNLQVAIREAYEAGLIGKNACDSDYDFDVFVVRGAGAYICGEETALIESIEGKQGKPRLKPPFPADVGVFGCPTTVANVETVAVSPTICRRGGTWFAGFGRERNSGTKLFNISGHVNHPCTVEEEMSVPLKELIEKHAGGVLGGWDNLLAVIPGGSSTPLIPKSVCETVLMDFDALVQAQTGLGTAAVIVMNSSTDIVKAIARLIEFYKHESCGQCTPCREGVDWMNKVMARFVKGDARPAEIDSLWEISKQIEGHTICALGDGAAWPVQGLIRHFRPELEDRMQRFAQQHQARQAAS
Experiment: High-throughput screen: ROS production from flavin binding site of complex I (IF)
Assay type: biochemical
Settings: Table 8; percent change in ROS from DMSO controls
ASSAY_ENDPOINT: IF

Inquiry: For the compound CCN1CCN(C2CCC(C(C)(C)C)CC2)CC1 (stereo not drawn) [Compound 22] , report IF.
Reply text: −22.1

Inquiry: For the compound Cc1ccc(C(C)C)c(OCC(O)CN2CCN(Cc3ccccc3)CC2)c1.Cl.Cl (stereo not drawn) [Compound 21] , report IF.
Reply text: −23.0

Inquiry: For the compound Cc1cc(C)c(S(=O)(=O)N2CCCC2=O)c(C)c1 [Compound 40] , report IF.
Reply text: 1.8

====

Biological target: outer ubiquinone binding site of complex III (IIIQO) (Rattus norvegicus, UniProt P00159+P20788)
Construct: freshly isolated muscle mitochondria were assayed; from tissue; host or cells: rat skeletal muscle mitochondria (Wistar, Harlan Laboratories)
Assay: High-throughput screen: ROS production from outer ubiquinone binding site of complex III (IIIQO)
Assay type: biochemical
Conditions: Table 7; percent change in ROS from DMSO controls; read-out: IIIQO
Readings of inhibition at 2.5 µM for the listed compounds

Inquiry: For the compound `CCCCN(Cc1ccccc1)Cc1cc(Cl)cc(Cl)c1O` , report inhibition at 2.5 µM.
Reply text: 31.3%

====

Molecular target: outer ubiquinone binding site of complex III (IIIQO) (Rattus norvegicus, UniProt P00159+P20788)
Construct: freshly isolated muscle mitochondria were assayed; from tissue; host or cells: rat skeletal muscle mitochondria (Wistar, Harlan Laboratories)
Test: High-throughput screen: ROS production from outer ubiquinone binding site of complex III (IIIQO)
Format: biochemical
Settings: Table 8; percent change in ROS from DMSO controls
ASSAY_ENDPOINT: IIIQO
Reply: number alone, nothing else.

compound=O=C(Nc1ccccc1C(=O)O)c1ccccc1 measurement=5.4

Inquiry: For the compound `COc1ccc(-c2ccccc2)cc1NCC1=CC[C@H]2C[C@@H]1C2(C)C` , report IIIQO.
Reply text: −24.7

Inquiry: For the compound `COc1ccc(Cl)cc1N(Cc1ccccc1)Cc1ccccc1` , report IIIQO.
Reply text: −49.4

====

Target: succinate dehydrogenase/complex II (SDH) (Rattus norvegicus, UniProt P21913+Q641Z9+Q6PCT8+Q920L2)
Construct: freshly isolated muscle mitochondria were assayed; from tissue; host or cells: rat skeletal muscle mitochondria (Wistar, Harlan Laboratories)
Sequence (Q920L2 35-656): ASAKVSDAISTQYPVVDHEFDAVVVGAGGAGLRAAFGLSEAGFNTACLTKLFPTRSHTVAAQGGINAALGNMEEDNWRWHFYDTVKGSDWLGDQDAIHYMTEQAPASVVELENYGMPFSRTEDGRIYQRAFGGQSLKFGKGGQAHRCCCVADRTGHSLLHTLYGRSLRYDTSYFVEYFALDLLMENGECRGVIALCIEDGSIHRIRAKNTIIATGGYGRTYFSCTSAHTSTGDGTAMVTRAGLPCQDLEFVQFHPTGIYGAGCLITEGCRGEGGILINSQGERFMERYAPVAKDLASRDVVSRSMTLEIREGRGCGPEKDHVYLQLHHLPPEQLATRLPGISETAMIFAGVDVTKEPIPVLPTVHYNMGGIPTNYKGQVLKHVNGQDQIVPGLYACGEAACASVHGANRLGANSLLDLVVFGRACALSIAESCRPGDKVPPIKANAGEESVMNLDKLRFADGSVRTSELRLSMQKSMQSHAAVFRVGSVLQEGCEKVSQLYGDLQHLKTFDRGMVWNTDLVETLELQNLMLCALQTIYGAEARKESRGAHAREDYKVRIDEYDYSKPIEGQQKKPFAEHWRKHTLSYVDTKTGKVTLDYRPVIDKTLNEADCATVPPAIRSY
Sequence (P21913 31-282): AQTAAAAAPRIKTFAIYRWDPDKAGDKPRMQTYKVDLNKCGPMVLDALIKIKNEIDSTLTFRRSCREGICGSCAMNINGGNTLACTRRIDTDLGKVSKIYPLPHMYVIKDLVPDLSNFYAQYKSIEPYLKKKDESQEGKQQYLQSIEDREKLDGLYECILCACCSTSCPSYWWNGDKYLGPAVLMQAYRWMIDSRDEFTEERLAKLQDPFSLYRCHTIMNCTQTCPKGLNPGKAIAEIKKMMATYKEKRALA
Sequence (Q641Z9 30-169 limits assumed): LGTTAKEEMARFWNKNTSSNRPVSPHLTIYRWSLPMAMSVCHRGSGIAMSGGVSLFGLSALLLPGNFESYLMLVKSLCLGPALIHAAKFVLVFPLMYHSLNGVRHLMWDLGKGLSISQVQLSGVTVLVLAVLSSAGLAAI
Sequence (Q6PCT8 57-159): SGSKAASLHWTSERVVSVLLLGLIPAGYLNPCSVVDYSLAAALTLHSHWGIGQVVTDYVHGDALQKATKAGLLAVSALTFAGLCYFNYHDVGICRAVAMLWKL
Assay: High-throughput screen: ROS production from succinate dehydrogenase/complex II (SDH)
Format: biochemical
Details: Table 7; percent change in ROS from DMSO controls
Readings of inhibition at 2.5 µM for the listed molecules
Write your answer as a measured quantity: the number, then the unit.

Example results:
molecule=CN(C)CCN(Cc1ccccc1)Cc1ccccc1Br measurement=-1.7%
molecule=c1ccc2[nH]c(-c3ccc(-c4nc5ccccc5[nH]4)cc3)nc2c1 measurement=-1.5%
molecule=O=C(Nc1ccc(-c2nc3ccccc3[nH]2)cc1)c1ccco1 measurement=-3.5%

Inquiry: For the molecule `COc1ccc(NS(=O)(=O)c2cccc(C(=O)Nc3ccc(C)cc3)c2)cc1` , report inhibition at 2.5 µM.
Reply text: 0.2%

Inquiry: For the molecule CCSC1=C(C#N)C2(CCCC2)C(C#N)C(=O)N1 (stereo not drawn) , report inhibition at 2.5 µM.
Reply text: -2.6%

Inquiry: For the molecule CCN1CCN(C2CCC(C(C)(C)C)CC2)CC1 (stereo not drawn) , report inhibition at 2.5 µM.
Reply text: -5.5%

Inquiry: For the molecule `CC(C)(C)C1=NN(c2c(Cl)cc(Cl)cc2Cl)C(=O)C1` , report inhibition at 2.5 µM.
Reply text: 6.8%

Inquiry: For the molecule `Cc1ccc(C)c(CN(CCCN(C)C)CCCN(C)C)c1` , report inhibition at 2.5 µM.
Reply text: 6.8%

Inquiry: For the molecule CC1CC(C)(C)N(C=O)c2ccccc21 (stereo not drawn) , report inhibition at 2.5 µM.
Reply text: 87.6%

Inquiry: For the molecule `COc1cc(CN(CCN(C)C)Cc2ccccc2)cc(OC)c1` , report inhibition at 2.5 µM.
Reply text: 6%

Inquiry: For the molecule `C=C(C)C(=O)Nc1ccc(-c2nc3ccccc3[nH]2)cc1` , report inhibition at 2.5 µM.
Reply text: 2.9%

Inquiry: For the molecule `O=C(Nc1ccccc1C(=O)O)c1ccccc1` , report inhibition at 2.5 µM.
Reply text: 0.3%
